Reported IC50 values for a set of compounds
TEST_SYSTEM: Substance-K receptor (Homo sapiens, UniProt P21452)
Sequence (P21452 whole entry): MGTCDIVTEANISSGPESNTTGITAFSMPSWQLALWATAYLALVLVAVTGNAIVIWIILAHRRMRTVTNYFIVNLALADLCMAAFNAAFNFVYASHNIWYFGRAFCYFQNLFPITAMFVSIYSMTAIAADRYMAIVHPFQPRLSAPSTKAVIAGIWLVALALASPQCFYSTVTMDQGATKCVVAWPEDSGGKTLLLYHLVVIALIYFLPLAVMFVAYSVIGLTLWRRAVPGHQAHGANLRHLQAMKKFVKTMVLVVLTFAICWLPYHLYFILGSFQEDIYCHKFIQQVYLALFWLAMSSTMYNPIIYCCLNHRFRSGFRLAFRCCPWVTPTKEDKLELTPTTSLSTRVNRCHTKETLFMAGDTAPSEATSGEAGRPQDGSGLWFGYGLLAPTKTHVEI
ASSAY_TEXT: Antagonist activity at human TACR2 expressed in CHOK1 cells assessed as substance P-induced beta-arrestin recruitment pre-incubated for 30 mins before substance P stimulation for 90 or 180 mins by chemiluminescence method
Square brackets hold non-standard residues; d marks the D form. Peptide text beside a SMILES is read from it. * marks the point of attachment. X4 = CC[C@H](C)[C@@H](OC(=O)[C@H](Cc1ccccc1)N(C)C)C(=O)*; X1 = CC[C@H](C)[C@@H](OC(=O)/C=C/c1ccccc1)C(=O)*; X3 = CC[C@H](C)[C@@H](OC(=O)/C=C\c1ccccc1)C(=O)*; X2 = CC[C@H](C)[C@@H](OC(=O)CCc1ccccc1)C(=O)*; dNMeF = CN[C@H](Cc1ccccc1)C(=O)O; NMeL = CN[C@@H](CC(C)C)C(=O)O
Only the number, expressed in µM, is required.

INPUT: Look up IC50: CC[C@H](C)[C@@H](OC(=O)[C@H](Cc1ccccc1)N(C)C)C(=O)N1CCC[C@H]1C(=O)NCC(=O)N(C)[C@@H](CC(C)C)C(=O)N[C@@H](C)C(=O)N(C)[C@H](Cc1ccccc1)C(=O)N1CCC[C@H]1C(=O)OC (X4-PG[NMeL]A[dNMeF]P-OMe)
OUTPUT: 5.51

INPUT: Look up IC50: CC[C@H](C)[C@@H](OC(=O)/C=C\c1ccccc1)C(=O)N1CCC[C@H]1C(=O)NCC(=O)N(C)[C@@H](CC(C)C)C(=O)N[C@@H](C)C(=O)N(C)[C@H](Cc1ccccc1)C(=O)N1CCC[C@H]1C(=O)OC (X3-PG[NMeL]A[dNMeF]P-OMe)
OUTPUT: 4.61

Further cases:
INPUT: Look up IC50: CC[C@H](C)[C@@H](OC(=O)CCc1ccccc1)C(=O)N1CCC[C@H]1C(=O)NCC(=O)N(C)[C@@H](CC(C)C)C(=O)N[C@@H](C)C(=O)N(C)[C@H](Cc1ccccc1)C(=O)N1CCC[C@H]1C(=O)OC (X2-PG[NMeL]A[dNMeF]P-OMe)
OUTPUT: 3.22

INPUT: Look up IC50: CC[C@H](C)[C@@H](OC(=O)/C=C/c1ccccc1)C(=O)N1CCC[C@H]1C(=O)NCC(=O)N(C)[C@@H](CC(C)C)C(=O)N[C@@H](C)C(=O)N(C)[C@H](Cc1ccccc1)C(=O)N1CCC[C@H]1C(=O)OC (X1-PG[NMeL]A[dNMeF]P-OMe)
OUTPUT: 1.79
